B1: Azoarcus group I ribozyme (parent)
chain: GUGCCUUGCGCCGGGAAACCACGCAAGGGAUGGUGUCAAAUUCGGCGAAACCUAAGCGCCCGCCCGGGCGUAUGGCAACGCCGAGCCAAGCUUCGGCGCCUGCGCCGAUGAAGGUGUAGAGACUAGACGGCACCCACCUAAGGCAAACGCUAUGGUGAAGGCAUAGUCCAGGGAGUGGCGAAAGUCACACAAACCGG

# Variants of: B1
# testDetails: reverse-splicing fitness (ratio to wild type); higher = more active; in vitro selection; Mg2+ level not given
Please note: condition met applies when reverse-splicing fitness is 0.01 or greater, and condition not met applies otherwise.

C82U A145U U176G: condition met
C82A A111C A120U A145G C169A: condition not met
C82U A111C A120U A145C U176C: condition not met
C82U A145U C169U U176C: condition met

Input: API: above_or_equal(metric=reverse-splicing fitness, cutoff=0.01) for item C82A A111G A120C A145U C150G
Output: condition met

Input: Can C82G A111U A120G A145G C169U U176G be said to have reverse-splicing fitness at or above 0.01?
Output: condition not met

Input: Evaluate C82U A111G A120C A145G C150A C169A U176A : reverse-splicing fitness at minimum 0.01?
Output: condition met

Input: Can C82G A120G A145G C150G C169G U176C be said to have reverse-splicing fitness at or above 0.01?
Output: condition met

Input: Can C82U A111C A120G A145U C150U C169U U176G be said to have reverse-splicing fitness at or above 0.01?
Output: condition not met

Input: Kindly determine if reverse-splicing fitness recorded for A111G A120U A145U C169U is above or exactly 0.01.
Output: condition met

Input: Confirm if reverse-splicing fitness reported for the variant C82U A120G A145C C150G C169U U176G is 0.01 or above.
Output: condition not met

Input: hey, is reverse-splicing fitness for this one >= 0.01? C82U A111U A145G C150A C169A U176A
Output: condition met

Input: Could you please find out whether C82A A111U A145G C150G C169U U176C has reverse-splicing fitness that meets 0.01 or exceeds it?
Output: condition met

Input: Can C82G C150A C169A U176G be said to have reverse-splicing fitness at or above 0.01?
Output: condition not met

Input: Check if reverse-splicing fitness >= 0.01 (inclusive). Item: A111U A120C A145C C150U C169G U176G
Output: condition not met

Input: For this variant, is measured reverse-splicing fitness 0.01 or higher? A111C A120C C150G C169U U176G
Output: condition not met

Input: Please check the record A111C A120G C169A U176A and state if its reverse-splicing fitness is at or above 0.01.
Output: condition met

Input: Threshold query (reverse-splicing fitness >= 0.01) on C82A A111G A120C C150U C169U
Output: condition met

Input: Does reverse-splicing fitness meet or surpass 0.01 for A111U A120U A145C C150G C169G U176C ?
Output: condition not met

Input: Can C82U A111G A120C A145U C150G C169A U176C be said to have reverse-splicing fitness at or above 0.01?
Output: condition not met

Input: Determine whether measured reverse-splicing fitness meets or exceeds 0.01 for C82U A111C A120G A145C C150G C169A U176G
Output: condition not met
